Each recorded value in this set is attributed to ChEMBL document CHEMBL1142488.

The compounds listed here are annotated with their Activity.
tested on: MDA-MB-435 (human); assay: Antitumor activity against human MDA-MB-435 cells xenografted in NCR/NU NU mouse assessed as tumor volume measured on day 7 initially dosed at 2 mg/kg, ip qd x 5/week for 2 weeks and was gradually increased to 6 mg/kg x 5/week schedule
observable: Activity (mm3)

molecular.string	assay.value
COc1cc2c(=O)n(CCN(C)CC#N)c3c4cc5c(cc4ncc3c2cc1OC)OCO5	149
CCN(CCn1c(=O)c2cc(OC)c(OC)cc2c2cnc3cc4c(cc3c21)OCO4)CC(F)(F)F	127
CCN(CC#N)CCn1c(=O)c2cc(OC)c(OC)cc2c2cnc3cc4c(cc3c21)OCO4	100
C#CCN(CC)CCn1c(=O)c2cc(OC)c(OC)cc2c2cnc3cc4c(cc3c21)OCO4	115
C#CCN(CCn1c(=O)c2cc(OC)c(OC)cc2c2cnc3cc4c(cc3c21)OCO4)C(C)C	99

* * *

target: DNA topoisomerase 1 (Homo sapiens); assay: Inhibition of human topoisomerase 1 mediated DNA cleavage assessed as effective drug concentration causing 10% YepG plasmid cleavage relative to camptothecin; conditions: in the assay text read “relative to topotecan” for “relative to camptothecin”

molecular.string	Activity
CCN(CC#N)CCn1c(=O)c2cc(OC)c(OC)cc2c2cnc3cc4c(cc3c21)OCO4	< 0.2
C#CCN(C)CCn1c(=O)c2cc(OC)c(OC)cc2c2cnc3cc4c(cc3c21)OCO4	0.1
COc1cc2c(=O)n(CCN(C)CC(N)=O)c3c4cc5c(cc4ncc3c2cc1OC)OCO5	0.3
CC[C@@]1(O)C(=O)OCc2c1cc1n(c2=O)Cc2cc3c(CN(C)C)c(O)ccc3nc2-1	1
CCN(CCn1c(=O)c2cc(OC)c(OC)cc2c2cnc3cc4c(cc3c21)OCO4)CC(F)(F)F	> 10
COc1cc2c(=O)n(CCN(CC(F)(F)F)C(C)C)c3c4cc5c(cc4ncc3c2cc1OC)OCO5	> 10
COc1cc2c(=O)n(CCN(C)CC(F)(F)F)c3c4cc5c(cc4ncc3c2cc1OC)OCO5	> 10
C#CCN(CC)CCn1c(=O)c2cc(OC)c(OC)cc2c2cnc3cc4c(cc3c21)OCO4	> 10
COc1cc2c(=O)n(CCN(CC#N)C(C)C)c3c4cc5c(cc4ncc3c2cc1OC)OCO5	< 0.2
C#CCN(CCn1c(=O)c2cc(OC)c(OC)cc2c2cnc3cc4c(cc3c21)OCO4)C(C)C	> 10
COc1cc2c(=O)n(CCN(C)C)c3c4cc5c(cc4ncc3c2cc1OC)OCO5	0.3
COc1cc2c(=O)n(CCN(C)CC#N)c3c4cc5c(cc4ncc3c2cc1OC)OCO5	< 0.2

* * *

tested on: P388; experiment: Cytotoxicity against mouse P388 cells after MTT assay; format: functional, cell-based
pIC50: −log10 of the molar value.
Please note: yes applies when pIC50 is 8 or greater, and no applies otherwise.

molecular.string	target.system	group
C#CCN(CCn1c(=O)c2cc(OC)c(OC)cc2c2cnc3cc4c(cc3c21)OCO4)C(C)C	P388	no
CCN(CCn1c(=O)c2cc(OC)c(OC)cc2c2cnc3cc4c(cc3c21)OCO4)CC(F)(F)F	P388	no
COc1cc2c(=O)n(CCN(CC(F)(F)F)C(C)C)c3c4cc5c(cc4ncc3c2cc1OC)OCO5	P388	no
CCN(CC#N)CCn1c(=O)c2cc(OC)c(OC)cc2c2cnc3cc4c(cc3c21)OCO4	P388	yes
COc1cc2c(=O)n(CCN(CC#N)C(C)C)c3c4cc5c(cc4ncc3c2cc1OC)OCO5	P388	yes
C#CCN(CC)CCn1c(=O)c2cc(OC)c(OC)cc2c2cnc3cc4c(cc3c21)OCO4	P388	no
COc1cc2c(=O)n(CCN(C)CC#N)c3c4cc5c(cc4ncc3c2cc1OC)OCO5	P388	yes
COc1cc2c(=O)n(CCN(C)CC(F)(F)F)c3c4cc5c(cc4ncc3c2cc1OC)OCO5	P388	no
C#CCN(C)CCn1c(=O)c2cc(OC)c(OC)cc2c2cnc3cc4c(cc3c21)OCO4	P388	no
